Where do the numbers come from? From the NIST ThermoML archive (doi:10.1021/je200707b).

settings: 303.15 K; 101.33 kPa; Liquid; Falling or rolling sphere viscometry
Below: a set of entries, each annotated with reported log10 of viscosity.
reported-endpoint: log10 of viscosity (log10 of the value in mPa·s)

{"compound": "CC(=O)O.CCCCN [butylammonium acetate]", "log10 of viscosity": 2.60}
{"compound": "CO", "log10 of viscosity": -0.28}
{"compound": "CCCCO", "log10 of viscosity": 0.36}
{"compound": "CCO", "log10 of viscosity": 0.01}
{"compound": "CCCO", "log10 of viscosity": 0.24}

====

conditions: 308.15 K; 101.33 kPa; Liquid; Falling or rolling sphere viscometry
Classify as follows. Reported viscosity greater than or equal to 2 mPa·s: True. Reported viscosity below: False.

{"compound": "CCO", "assigned-category": "False"}
{"compound": "CC(=O)O.CCCCN [butylammonium acetate]", "assigned-category": "True"}
{"compound": "CCCO", "assigned-category": "False"}
{"compound": "CO", "assigned-category": "False"}

====

settings: 293.15 K; 101.33 kPa; Liquid; Falling or rolling sphere viscometry
Below: a set of entries, each annotated with reported viscosity.
reported-endpoint: viscosity (mPa·s)

{"molecule": "CCCO", "data-value": 2.229}
{"molecule": "CC(=O)O.CCCCN [butylammonium acetate]", "data-value": 771.69}
{"molecule": "CCO", "data-value": 1.241}
{"molecule": "CCCCO", "data-value": 2.983}
{"molecule": "CO", "data-value": 0.588}

====

details: 293.15 K; 101.33 kPa; Liquid; Vibrating tube method

{"compound": "CCCO", "mass density [kg/m3]": 803.55}
{"compound": "CCCCO", "mass density [kg/m3]": 809.7}
{"compound": "CO", "mass density [kg/m3]": 791.28}
{"compound": "CCO", "mass density [kg/m3]": 789.54}
{"compound": "CC(=O)O.CCCCN [butylammonium acetate]", "mass density [kg/m3]": 959.61}

====

Below: a set of entries, each annotated with reported mass density.
conditions: 308.15 K; 101.33 kPa; Liquid; Vibrating tube method

{"molecule": "CC(=O)O.CCCCN [butylammonium acetate]", "mass density (kg/m3)": 950.15}
{"molecule": "CO [methanol]", "mass density (kg/m3)": 777.07}
{"molecule": "CCO [ethanol]", "mass density (kg/m3)": 776.57}
{"molecule": "CCCCO [butan-1-ol]", "mass density (kg/m3)": 798.17}
{"molecule": "CCCO [propan-1-ol]", "mass density (kg/m3)": 791.44}

====

settings: 303.15 K; 101.33 kPa; Liquid; Vibrating tube method

{"molecule": "CCCCO", "mass density (kg/m3)": 802.05}
{"molecule": "CO", "mass density (kg/m3)": 781.83}
{"molecule": "CCCO", "mass density (kg/m3)": 795.52}
{"molecule": "CC(=O)O.CCCCN [butylammonium acetate]", "mass density (kg/m3)": 953.33}
{"molecule": "CCO", "mass density (kg/m3)": 780.93}

====

Below: a set of entries, each annotated with reported refractive index.
experiment: refractive index (Na D-line) (dimensionless); settings: 298.15 K; 101.33 kPa; Liquid; Standard Abbe refractometry

{"molecule": "CC(=O)O.CCCCN [butylammonium acetate]", "refractive index": 1.4426}
{"molecule": "CCCCO", "refractive index": 1.3973}
{"molecule": "CCO", "refractive index": 1.3594}
{"molecule": "CCCO", "refractive index": 1.3834}
{"molecule": "CO", "refractive index": 1.3265}
